These measurements were taken from patent US20210277126A1.

Reported Kd values for a set of binders
Target: T1, human CLL1 ECD (65-265) (human, UniProt Q5QGZ9 65-265)
T1 construct: Expressed in 293-F cells and purified by IMAC; also called huCLL1; recombinant human CLL1 protein
T1 sequence: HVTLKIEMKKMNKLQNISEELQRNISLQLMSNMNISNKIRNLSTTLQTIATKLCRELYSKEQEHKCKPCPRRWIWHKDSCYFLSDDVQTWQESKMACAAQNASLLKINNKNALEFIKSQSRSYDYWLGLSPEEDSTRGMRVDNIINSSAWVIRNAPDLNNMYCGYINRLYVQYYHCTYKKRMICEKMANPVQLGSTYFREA
Assay: SPR (Biacore T200), sdAb supernatant, recombinant human CLL1
A number alone suffices; assume nM.

| Binder | Kd, nM |
| --- | --- |
| AS83478 sdAb (VHH, Camel sdAb tested as E. coli culture supernatant; not shown: C-terminal His-tag encoded by the soluble expression vector) VHH: QVHLMESGGGLVQPGESLRLSCAASGFIFANYEMSWVRQAPGKVLEWVSGINSRGNATYYADSVKGRFTISRDNAEHTLYLQMNSLKPEDTAMYHCVVGGMTTDQGSPDFYWGQGTQVTVSS | 2 |
| AS82505 sdAb (VHH, Camel sdAb tested as E. coli culture supernatant; not shown: C-terminal His-tag encoded by the soluble expression vector) VHH: QVQLAESGGGLVQPGGSLRLSCVASGFTFSSYDMSWVRQAPGKGVEWVSTINSGGGSTYYAESAKGRFTISRDNAKNTLYLQLNSLKTEDTAMYYCVKGFPDDDGPGELSREYNYWGQGTQVTVSS | 0.83 |
| AS83591 sdAb (VHH, Camel sdAb tested as E. coli culture supernatant; not shown: C-terminal His-tag encoded by the soluble expression vector) VHH: QVQLVESGGGLVQPGGSLRLSCAASGFLFSIYDMNWVRQAPGKGVEWIAGITNNEHTTAYADSVKGRFTISRDNTKNTLFLQMNSLKPEDTAMYYCQRDDGQVRGQGTQVTVSS | 31 |

Ask: // lookup Kd for AS83791 sdAb (VHH, Tested as E. coli culture supernatant; not shown: C-terminal His-tag encoded by the soluble expression vector) VHH: QVKLVESGGGLVQPGGSLRLSCVASGFAFSSADMSWVRQAPGKGVEAVSVINRDGASTYYADSVKGRFTISRDNAKSTLYLQMNSLKPEDTAMYHCAVVPENEYESGSYNYWGQGTQVTVSS
Result: 0.44
